Test system: Staphylococcus aureus
Assay: Antibacterial activity against Staphylococcus aureus N315 after 14 to 16 hrs by broth dilution method
Format: functional
metric: MIC

Illustrative cases are given below, each with its answer.
Return MIC for the following compound: O=C(Cc1cccs1)N[C@@H]1C(=O)N2C(C(=O)[O-])=C(C[n+]3ccccc3)CS[C@H]12
1 µg/mL

Output MIC of CC1(C)S[C@@H]2[C@H](NC(=O)[C@H](N)c3ccc(O)cc3)C(=O)N2[C@H]1C(=O)O
16 µg/mL

Could you please provide reported MIC for CCN1CCN(C(=O)N[C@@H](C(=O)N[C@@H]2C(=O)N3C(C(=O)O)=C(CSc4nnnn4C)CS[C@H]23)c2ccc(O)cc2)C(=O)C1=O ? Thanks!
4 µg/mL

# per-item lookup of MIC; items listed below
1. CC(=O)OCC1=C(C(=O)O)N2C(=O)[C@@H](NC(=O)Cc3cccs3)[C@H]2SC1
2. O=C(N[C@H](CO)[C@H](O)c1ccc([N+](=O)[O-])cc1)C(Cl)Cl
3. CC1(C)S[C@@H]2[C@H](NC(=O)[C@H](N)c3ccccc3)C(=O)N2[C@H]1C(=O)O
4. CC1(C)S[C@@H]2[C@H](NC(=O)[C@H](C(=O)O)c3ccsc3)C(=O)N2[C@H]1C(=O)O
5. Cc1onc(-c2ccccc2Cl)c1C(=O)N[C@@H]1C(=O)N2[C@@H]1SC(C)(C)[C@@H]2C(=O)O
6. Cc1onc(-c2ccccc2)c1C(=O)N[C@@H]1C(=O)N2[C@@H]1SC(C)(C)[C@@H]2C(=O)O

1. 1 µg/mL
2. 8 µg/mL
3. 128 µg/mL
4. 32 µg/mL
5. 8 µg/mL
6. 16 µg/mL

I would be grateful if you could provide MIC for each of the following entries.
1. CCN1CCN(C(=O)N[C@@H](C(=O)N[C@@H]2C(=O)N3[C@@H]2SC(C)(C)[C@@H]3C(=O)O)c2ccccc2)C(=O)C1=O
2. CO/N=C(\C(=O)N[C@@H]1C(=O)N2C(C(=O)O)=C(CSc3nc(=O)c(O)nn3C)CS[C@H]12)c1csc(N)n1
3. CC1(C)S[C@@H]2[C@H](NC(=O)Cc3ccccc3)C(=O)N2[C@H]1C(=O)O
4. NCCCNCCCCNCCCN

1. 32 µg/mL
2. 4 µg/mL
3. 32 µg/mL
4. 4 mM

---

Tested on: Staphylococcus aureus
Test: Antibacterial activity against Staphylococcus aureus N315 after 14 to 16 hrs by broth dilution method
Type: functional
metric: MIC (µg/mL)
Give bare numbers, in µg/mL.

Worked examples follow.
Provide MIC value for the following compound: CC1(C)S[C@@H]2[C@H](NC(=O)[C@H](NC(=O)N3CCNC3=O)c3ccccc3)C(=O)N2[C@H]1C(=O)O
16

For the compound CO/N=C(\C(=O)N[C@@H]1C(=O)N2C(C(=O)O)=C(COC(C)=O)CS[C@H]12)c1csc(N)n1 , give its measured MIC value.
2

Next:
Note MIC for the compound shown: CN(C)[C@@H]1C(O)=C(C(N)=O)C(=O)[C@@]2(O)C(O)=C3C(=O)c4c(O)cccc4[C@@](C)(O)[C@H]3C[C@@H]12
0.12

---

Test system: Salmonella typhimurium
Test: Antibacterial activity against Salmonella enterica serovar Typhimurium LT2 after 14 to 16 hrs by broth dilution method
Assay type: functional, Salmonella enterica subsp. enterica serovar Typhimurium
metric: log10 MIC (log10 of the value in mg/L)
The figures below represent log10 of MIC, where MIC is stated in mg/L.

Please give measured log10 MIC of the following entry: CN[C@@H]1[C@H](O)[C@H](NC)[C@H]2O[C@@]3(O)C(=O)C[C@@H](C)O[C@H]3O[C@@H]2[C@H]1O
1.51

Read off the recorded log10 MIC for Cc1onc(-c2ccccc2)c1C(=O)N[C@@H]1C(=O)N2[C@@H]1SC(C)(C)[C@@H]2C(=O)O
2.41

Input CCN1CCN(C(=O)N[C@@H](C(=O)N[C@@H]2C(=O)N3[C@@H]2SC(C)(C)[C@@H]3C(=O)O)c2ccccc2)C(=O)C1=O , output reported log10 MIC.
0.60

Indicate its recorded log10 MIC; the molecule in question is O=C(N[C@H](CO)[C@H](O)c1ccc([N+](=O)[O-])cc1)C(Cl)Cl
0.30

Determine its reported log10 MIC: CC1(C)S[C@@H]2[C@H](NC(=O)[C@H](C(=O)O)c3ccsc3)C(=O)N2[C@H]1C(=O)O
0.60

Consider the following items and state reported log10 MIC for each.
1. CC1(C)S[C@@H]2[C@H](NC(=O)C(C(=O)O)c3ccccc3)C(=O)N2[C@H]1C(=O)O (some centres not stated)
2. CC1(C)S[C@@H]2[C@H](NC(=O)Cc3ccccc3)C(=O)N2[C@H]1C(=O)O
3. NC[C@H]1O[C@H](O[C@H]2[C@H](O)[C@@H](O[C@H]3O[C@H](CO)[C@@H](O)[C@H](N)[C@H]3O)[C@H](N)C[C@@H]2N)[C@H](O)[C@@H](O)[C@@H]1O
4. CC[C@H]1OC(=O)[C@H](C)[C@@H](O[C@H]2C[C@@](C)(OC)[C@@H](O)[C@H](C)O2)[C@H](C)[C@@H](O[C@@H]2O[C@H](C)C[C@H](N(C)C)[C@H]2O)[C@](C)(O)C[C@@H](C)C(=O)[C@H](C)[C@@H](O)[C@]1(C)O
5. O=C(Cc1cccs1)N[C@@H]1C(=O)N2C(C(=O)[O-])=C(C[n+]3ccccc3)CS[C@H]12
6. CN(C)[C@@H]1C(O)=C(C(N)=O)C(=O)[C@@]2(O)C(O)=C3C(=O)c4c(O)cccc4[C@@](C)(O)[C@H]3C[C@@H]12
7. CC1(C)S[C@@H]2[C@H](NC(=O)[C@H](NC(=O)N3CCNC3=O)c3ccccc3)C(=O)N2[C@H]1C(=O)O

0.90
1.20
0.60
1.81
-1.82
0.30
1.20

Report log10 MIC, nothing else, for this molecule: CC1(C)S[C@@H]2[C@H](NC(=O)[C@H](N)c3ccccc3)C(=O)N2[C@H]1C(=O)O
0.60
